Tested on: Muscle tissue
PROTOCOL DETAILS: Biodistribution in ICR mouse muscle at 5 to 10 uCi, iv after 30 mins
Format: ADME, organism-based
COND: in vivo, 0.5 h
Some compounds, each annotated with its measured Drug uptake.

SMI: CN(C)c1ccc(C#Cc2ccc(OCCOCCOCC[18F])cc2)cc1
Drug uptake, % ID/g: 0.67
//
SMI: CNc1ccc(C#Cc2ccc(OCCOCCOCC[18F])cc2)cc1
Drug uptake, % ID/g: 0.61
//
SMI: CNc1ccc(C#Cc2ccc(OCCOCC[18F])cc2)cc1
Drug uptake, % ID/g: 1.26
//
SMI: CN(C)c1ccc(C#Cc2ccc(OCCOCC[18F])cc2)cc1
Drug uptake, % ID/g: 1.38
